# Target entity: pneumolysin (Ply) (Streptococcus pneumoniae serotype 2, UniProt Q04IN8)
# Construct: made in house; host or cells: E. coli BL21(DE3)
# Sequence (Q04IN8 whole entry): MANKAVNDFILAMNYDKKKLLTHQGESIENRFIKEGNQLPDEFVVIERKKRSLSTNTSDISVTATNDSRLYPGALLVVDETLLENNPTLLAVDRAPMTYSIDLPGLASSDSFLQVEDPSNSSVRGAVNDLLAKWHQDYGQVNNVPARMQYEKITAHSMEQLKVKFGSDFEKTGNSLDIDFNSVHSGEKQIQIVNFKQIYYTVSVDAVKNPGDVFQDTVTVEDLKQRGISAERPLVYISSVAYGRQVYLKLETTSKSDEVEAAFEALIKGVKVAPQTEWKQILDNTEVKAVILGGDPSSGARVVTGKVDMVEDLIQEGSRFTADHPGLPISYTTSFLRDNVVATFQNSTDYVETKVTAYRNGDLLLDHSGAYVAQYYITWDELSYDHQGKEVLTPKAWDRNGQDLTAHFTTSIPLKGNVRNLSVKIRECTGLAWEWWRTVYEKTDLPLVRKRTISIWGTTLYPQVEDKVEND
# Assay protocol: cell-based
# Assay type: cell-based
# Conditions: IC50 (screening with hemolysis assays), estimated from the inhibition curves, two-fold dilutions of tannins
As shown below, each of these molecules has a reported IC50 value.
Parameter measured: IC50 (nM)

molecule=O=C(O)C[C@@H]1C(=O)O[C@H]2[C@@H]3OC(=O)c4cc(O)c(O)c(O)c4-c4c(cc(O)c(O)c4O)C(=O)OC[C@H]2O[C@@H](OC(=O)c2cc(O)c(O)c(O)c2)[C@@H]3OC(=O)c2cc(O)c(O)c3c2[C@H]1[C@H](O)C(=O)O3 prefix_operator=> reported=100
molecule="O=C(OC1O[C@@H]2COC(=O)c3cc(O)c(O)c(O)c3-c3c(cc(O)c(O)c3O)C(=O)O[C@H]2[C@H](OC(=O)c2cc(O)c(O)c(O)c2)[C@H]1OC(=O)c1cc(O)c(O)c(O)c1)c1cc(O)c(O)c(O)c1 (some centres unmarked)" prefix_operator== reported=10
molecule=O=C(O[C@@H]1O[C@H](CO)[C@@H](O)[C@H](O)[C@H]1O)c1cc(O)c(O)c(O)c1 prefix_operator=> reported=100
molecule="O=C1O[C@H]2[C@@H]3OC(=O)c4cc(O)c(O)c(O)c4-c4c(O)c(O)c5oc(=O)c6c(c(O)c(O)c7oc(=O)c4c5c76)-c4c(cc(O)c(O)c4O)C(=O)OC[C@H]3OC(O)[C@@H]2OC(=O)c2cc(O)c(O)c(O)c2-c2c1cc(O)c(O)c2O (mixture of isomers)" prefix_operator== reported=60
molecule=O=C(O[C@@H]1O[C@@H]2COC(=O)c3cc(O)c(O)c(O)c3-c3c(cc(O)c(O)c3O)C(=O)O[C@H]2[C@H](O)[C@H]1OC(=O)c1cc(O)c(O)c(O)c1)c1cc(O)c(O)c(O)c1 prefix_operator== reported=70
